B1: r16_88_TrROS_Hall (parent)
chain: EVIELKIKFKTPEQREKLKEIAKKLNAEVVEEKDGEVIIRFKTPEQAERALKEAEKLGAEVEL

- Variants of: B1
- Experimental protocol: folding stability dG (cDNA display proteolysis); higher = more stable
- Experimental context: PBS, room temperature
Experimental readout: folding stability dG (kcal/mol)

# Sequence entry, Result
data = [
    ("EVIEIKIKFKTPEQREKLKEIAKKLNAEVVEEKDGEVIIRFKTPEQAERALKEAEKLGAEVEL [L5I]", 4.26),
    ("EVIELKIKFKTPEQREKLKEIAKKLNAEVVCEKDGEVIIRFKTPEQAERALKEAEKLGAEVEL [E31C]", 4.51),
    ("EVIELDIKFKTPEQREKLKEIAKKLNAEVVEEKDGEVIIRFKTPEQAERALKEAEKLGAEVEL [K6D]", 3.67),
    ("EVIELKIKFKTPEQNEKLKEIAKKLNAEVVEEKDGEVIIRFKTPEQAERALKEAEKLGAEVEL [R15N]", 4.17),
    ("EVIELKIKFKTPEQREKLDEIAKKLNAEVVEEKDGEVIIRFKTPEQAERALKEAEKLGAEVEL [K19D]", 4.31),
    ("EVIELKIIFKTPEQREKLKEIAKKLNAEVVEEKDGEVIIRFKTPEQAERALKEAEKLGAEVEL [K8I]", 4.12),
    ("EVIELKIKFKTPEQREKLKEIAKKLNAEVVEEKDGEVIIRFKTPEQAERALKEAEMLGAEVEL [K56M]", 4.57),
    ("EVIELKIKFKTPEQREKTKEIAKKLNAEVVEEKDGEVIIRFKTPEQAERALKEAEKLGAEVEL [L18T]", 4.15),
    ("EVIELKIKFKTPEQREKLKEIAKKLNAEVVEEKDGEVIIRFKTPEQAERALKEAEKLGAEVRL [E62R]", 3.94),
    ("EVIELKIKFKTPEQREKLKEIAKKLNAEVVEEKDGEVIIRFKTPEQAERAHKEAEKLGAEVEL [L51H]", 4.79),
    ("EVIELKIKFKTPEQREKLKEIAKKLNAEVVEEKDGEVIIRFKTPEQAERALKEAEKLGAEQEL [V61Q]", 4.22),
    ("EVIELKIKFKTPEQREKLKEIAKKLNNEVVEEKDGEVIIRFKTPEQAERALKEAEKLGAEVEL [A27N]", 3.76),
    ("EVIELKIKFKTPEQREKLKEIAKKLNAEVVEEKDGEVIIRFKTPEQAERACKEAEKLGAEVEL [L51C]", 4.41),
    ("EVIELKIRFKTPEQREKLKEIAKKLNAEVVEEKDGEVIIRFKTPEQAERALKEAEKLGAEVEL [K8R]", 4.62),
    ("EVIELKIKFKGPEQREKLKEIAKKLNAEVVEEKDGEVIIRFKTPEQAERALKEAEKLGAEVEL [T11G]", 4.26),
    ("EVIELKIKFKTPEQREKLKEIAKKLNAEVVEEKDGEVIILFKTPEQAERALKEAEKLGAEVEL [R40L]", 4.5),
    ("EVIELKIKFKTPEQRERLKEIAKKLNAEVVEEKDGEVIIRFKTPEQAERALKEAEKLGAEVEL [K17R]", 4.51),
    ("EVIELKIKFKTPEQREKLKEIAKKLNAEVVEEKDGEEIIRFKTPEQAERALKEAEKLGAEVEL [V37E]", 3.36),
    ("EVIELKIKFKTPEQREKLKEIAKKTNAEVVEEKDGEVIIRFKTPEQAERALKEAEKLGAEVEL [L25T]", 4.29),
    ("EVIELKIVFKTPEQREKLKEIAKKLNAEVVEEKDGEVIIRFKTPEQAERALKEAEKLGAEVEL [K8V]", 4.34),
    ("EVIELKIKFKTPEQREKLKEIAKKSNAEVVEEKDGEVIIRFKTPEQAERALKEAEKLGAEVEL [L25S]", 4.33),
    ("EVIELKIKFKTWEQREKLKEIAKKLNAEVVEEKDGEVIIRFKTPEQAERALKEAEKLGAEVEL [P12W]", 4.88),
]
